Target: T1, membrane-associated human TL1A on transfected HEK293 cells (human, UniProt O95150 1-251)
T1 construct: whole, on cells
T1 sequence (looked up): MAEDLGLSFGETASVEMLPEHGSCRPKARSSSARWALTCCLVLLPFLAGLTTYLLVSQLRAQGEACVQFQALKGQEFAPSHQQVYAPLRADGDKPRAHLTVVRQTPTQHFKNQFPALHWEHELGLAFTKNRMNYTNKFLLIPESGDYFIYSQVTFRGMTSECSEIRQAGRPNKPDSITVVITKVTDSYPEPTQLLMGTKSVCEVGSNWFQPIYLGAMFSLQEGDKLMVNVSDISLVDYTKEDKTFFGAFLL
Assay: flow cytometry, HEK293 cells transfected with human TL1A
value.type: binding result

Enquiry: Fill in the blank: the reported binding result of Clone 16 Fab (Fab, V domains shown, Fab; also called Clone 16L) VH: QVQLVQSGAEVKKPGASVKVSCKASGFDIQDTYMHWVRQAPGQGLEWMGRIDPASGHVKIDPKFQVRVTMTRDTSTSTVYMELSSLRSEDTAVYYCARSGGLPDMWGQGTTVTVSS VL: EIVLTQSPGTLSLSPGERATLSCRASSSVSYMYWYQQKPGQAPRLLIYATSNLASGIPDRFSGSGSGTDFTLTISRLEPEDFAVYYCQQWQGNPRTFGGGTKLEIK is ____.
Return: binds

Enquiry: Fill in the blank: the reported binding result of Clone 3-17L V-A Fab (Fab, V domains shown, Fab) VH: QVQLVQSGAEVKKPGASVKVSCKASGFDIQDTYMHWVRQAPGQGLEWMGRIDPASGHLKYDPKFQGRVTITRDTSASTAYMELSSLRSEDTAVYYCARSGGLPDMWGQGTTVTVSS VL: EIVLTQSPGTLSLSPGERATLSCRASSSVSYMYWYQQKPGQAPRLLIYATSNLASGIPDRFSGSGSGTDFTLTISRLEPEDFAVYYCQQWQGNPRTFGGGTKLEIK is ____.
Return: binds
